test: PAMPA test (parallel artificial membrane permeability assay); type: in vitro ADME; conditions: phosphate buffer pH 6.8, about 200 μM, about 5 hours, room temperature, read-out: Test Example 4 membrane permeation coefficient Pe
endpoint-label: Papp (×10⁻⁶ cm/s)
Give bare numbers, in ×10⁻⁶ cm/s.

>>> recorded_measurement("C=CCN1CC(=O)N2[C@@H](Cc3ccc(O)cc3)C(=O)N(Cc3ccc(F)c(N4CC(N5CCC(N(C)C)CC5)C4)n3)C[C@@H]2N1C(=O)NCc1ccccc1 [Reference Example 1]")
0.62
>>> recorded_measurement("C=CCN1CC(=O)N2[C@@H](Cc3c(F)cc(O)cc3F)C(=O)N(Cc3cccc(N4CC(N5CCN(CC)[C@@H](C)C5)C4)n3)C[C@@H]2N1C(=O)NCc1ccccc1")
0.57
>>> recorded_measurement("C=CCN1CC(=O)N2[C@@H](Cc3ccc(O)cc3F)C(=O)N(Cc3cccc(N4CC(N5CCN(C)[C@H](C)C5)C4)n3)C[C@@H]2N1C(=O)NCc1ccccc1")
1.18
>>> recorded_measurement("C=CCN1CC(=O)N2[C@@H](Cc3ccc(O)cc3)C(=O)N(Cc3ccc(F)c(N4CC(N5CCN(C)CC5)C4)n3)C[C@@H]2N1C(=O)NCc1ccccc1")
2.3
>>> recorded_measurement("C=CCN1CC(=O)N2[C@@H](Cc3ccc(O)cc3)C(=O)N(Cc3cccc(N4CC(N5CCN(C)C[C@@H]5C)C4)n3)C[C@@H]2N1C(=O)NCc1ccccc1")
1.27
>>> recorded_measurement("C=CCN1CC(=O)N2[C@@H](Cc3ccc(O)cc3)C(=O)N(Cc3cccnc3N3CCC(N4CCCC4)CC3)C[C@@H]2N1C(=O)NCc1ccccc1 [Comparative Example 1, reference compound]")
1.34
>>> recorded_measurement("C=CCN1CC(=O)N2[C@@H](Cc3ccc(O)cc3F)C(=O)N(Cc3ccc(F)c(N4CC(N(C)CCN(C)C)C4)n3)C[C@@H]2N1C(=O)NCc1ccccc1 [Reference Example 6]")
1.7
>>> recorded_measurement("C=CCN1CC(=O)N2[C@@H](Cc3ccc(O)cc3F)C(=O)N(Cc3ccc(F)c(N4CC(N5CCN(C)CC5)C4)n3)C[C@@H]2N1C(=O)NCc1ccccc1")
3.75
>>> recorded_measurement("C=CCN1CC(=O)N2[C@@H](Cc3c(F)cc(O)cc3F)C(=O)N(Cc3cccc(N4CC(N5CCN(C)CC5)C4)n3)C[C@@H]2N1C(=O)NCc1ccccc1")
0.39
>>> recorded_measurement("C=CCN1CC(=O)N2[C@@H](Cc3ccc(O)cc3)C(=O)N(Cc3cccc(N4CC(N5CCN(CC)[C@@H](C)C5)C4)n3)C[C@@H]2N1C(=O)NCc1ccccc1")
1.13

Shift focus to the following entry.
In: Looking for the measured Papp of C=CCN1CC(=O)N2[C@@H](Cc3ccc(O)cc3F)C(=O)N(Cc3ccc(F)c(N4CC(N5CCC(N(C)C)CC5)C4)n3)C[C@@H]2N1C(=O)NCc1ccccc1 [Reference Example 3] , can you help?
Out: 0.55

Cited source: patent US9174998B2
